# key: entry, value: melting point
Quantity kind: melting point

molecule="CNC1C(C)(C)c2ccc(CCN3CCN(c4nsc5ccccc45)CC3)cc2C1(C)C.CS(=O)(=O)O (centres unmarked)" assay_value="200 to 203 °C (dec.)"
molecule="CC(=O)NC1Cc2ccc(CCN3CCN(c4nsc5ccccc45)CC3)cc2C1(C)C (racemic)" assay_value="62 to 72 °C"
molecule="CCNC1Cc2cc(CCN3CCN(c4nsc5ccccc45)CC3)ccc2C1(C)C.CS(=O)(=O)O (centres unmarked)" assay_value="115 to 125 °C (dec.)"
molecule="CC1(C)c2ccc(C(O)CN3CCN(c4n[nH]c5ccccc45)CC3)cc2C(C)(C)C1O (centres unmarked)" assay_value="104 to 110 °C"
molecule="CCNC1Cc2ccc(CCN3CCN(c4nsc5ccccc45)CC3)cc2C1(C)C.CS(=O)(=O)O (centres unmarked)" assay_value="125 to 135 °C"
molecule="CCN(C(C)=O)C1Cc2cc(CCN3CCN(c4nsc5ccccc45)CC3)ccc2C1(C)C.CS(=O)(=O)O (centres unmarked)" assay_value="60 to 70 °C"
molecule="CC1(C)c2ccc(C(O)CN3CCN(c4nsc5ccccc45)CC3)cc2C(C)(C)C1O (centres unmarked)" assay_value="88 to 97 °C"
molecule="CCN(C(C)=O)C1Cc2ccc(CCN3CCN(c4nsc5ccccc45)CC3)cc2C1(C)C.CS(=O)(=O)O (centres unmarked)" assay_value="62 to 72 °C"
molecule="CCOC(CN1CCN(c2noc3ccccc23)CC1)c1ccc2c(c1)C(C)(C)C(=O)C2(C)C.CS(=O)(=O)O (centres unmarked)" assay_value="219 to 222 °C"
molecule="CC(=O)N(C)C1C(C)(C)c2ccc(CCN3CCN(c4nsc5ccccc45)CC3)cc2C1(C)C.CS(=O)(=O)O (centres unmarked)" assay_value="248 to 250 °C"
molecule="CC1(C)c2ccc(C(F)CN3CCN(c4nsc5ccccc45)CC3)cc2C(C)(C)C1O (centres unmarked)" assay_value="49 to 54 °C"
molecule=CC1(C)C(=O)C(C)(C)c2cc(CCN3CCN(c4nsc5ccccc45)CC3)ccc21 assay_value="122 to 126 °C"
molecule=CC1(C)C(=O)C(C)(C)c2cc(CCCN3CCN(c4nsc5ccccc45)CC3)ccc21.CS(=O)(=O)O assay_value="144 to 147 °C"
molecule=CC1(C)C(=O)C(C)(C)c2cc(CCN3CCN(c4noc5ccccc45)CC3)ccc21.CS(=O)(=O)O assay_value="259 to 261 °C"
molecule=CC1(C)C(=O)C(C)(C)c2cc(CCCN3CCN(c4noc5ccccc45)CC3)ccc21.CS(=O)(=O)O assay_value="200 to 203 °C (dec.)"
molecule="CNC(CN1CCN(c2nsc3ccccc23)CC1)c1ccc2c(c1)C(C)(C)C(O)C2(C)C (centres unmarked)" assay_value="96 to 101 °C"
molecule="CC(=O)NC1Cc2cc(CCN3CCN(c4nsc5ccccc45)CC3)ccc2C1(C)C (racemic)" assay_value="58 to 68 °C"

---

Reported values of Ki for individual entries
target: dopamine D2 receptor (Homo sapiens, UniProt P14416); assay: Dopamine D2 receptor binding ([3H]spiperone, CHO-hD2L membranes)
Sequence (P14416 whole entry): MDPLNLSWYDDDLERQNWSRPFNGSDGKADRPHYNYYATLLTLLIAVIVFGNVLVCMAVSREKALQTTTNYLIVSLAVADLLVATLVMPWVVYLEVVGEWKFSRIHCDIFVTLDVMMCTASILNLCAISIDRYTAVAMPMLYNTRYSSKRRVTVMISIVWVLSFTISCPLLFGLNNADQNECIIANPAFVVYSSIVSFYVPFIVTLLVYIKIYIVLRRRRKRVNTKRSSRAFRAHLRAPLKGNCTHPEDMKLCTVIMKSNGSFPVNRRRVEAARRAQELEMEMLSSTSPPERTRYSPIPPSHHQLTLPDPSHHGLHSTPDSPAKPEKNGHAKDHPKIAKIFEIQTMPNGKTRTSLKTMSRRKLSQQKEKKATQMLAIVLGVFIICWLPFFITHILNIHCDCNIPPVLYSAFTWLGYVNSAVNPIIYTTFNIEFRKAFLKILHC
Quantity kind: Ki

compound="O=C(Cc1ccoc1)NC1CCc2ccc(CCN3CCN(c4nsc5ccccc45)CC3)cc21 (stereo not drawn)" quantity_kind=Ki assay_value="5 nM"
compound=CC(=O)N[C@H]1Cc2ccc(CCN3CCN(c4nsc5ccccc45)CC3)cc2C1 quantity_kind=Ki assay_value="9 nM"
compound="O=C(NC1CCc2ccc(CCN3CCN(c4nsc5ccccc45)CC3)cc21)c1ccno1 (stereo not drawn)" quantity_kind=Ki assay_value="3 nM"
